test: Apparent solubility of AmB in pH-adjusted methanol; type: physicochemical; settings: organic solvent or mixture, in MeOH, room temperature, pH of the formulation 4.4, 6.9 or 9.6
Quantity: solubility at 2 h (µg/mL)
One number for each entry, in µg/mL.

(Q) Entry under review: C[C@@H]1[C@H](O)[C@@H](C)/C=C/C=C/C=C/C=C/C=C/C=C/C=C/[C@H](O[C@@H]2O[C@H](C)[C@@H](O)[C@H](N)[C@@H]2O)C[C@@H]2O[C@](O)(C[C@@H](O)C[C@@H](O)[C@H](O)CC[C@@H](O)C[C@@H](O)CC(=O)O[C@H]1C)C[C@H](O)[C@H]2C(=O)O . Reported solubility at 2 h?
(A) 2900

Values were extracted from patent US7473433B2.
